Where do these numbers come from? They come from patent US8895585B2.

Let's look at some compounds and their measured IC50.
Biological target: glutathione S-transferase (GST)-fused full-length human Syk protein (Homo sapiens, UniProt P43405)
Construct: (GST)-fused full-length human Syk protein; GST (glutathione S-transferase); purchased Carna Biosciences
Assay: Syk enzyme assay
Type: biochemical
Details: Syk enzyme assay, Test Example 1; read-out: IC50 of Syk-inhibitory activity

Examples with answers:
COMPOUND	IC50
COCCn1ncc2cc(Nc3nc(N[C@H](CC(C)C)[C@H](C)N)c(F)cc3C(N)=O)ccc21	< 10 nM
NC(=O)c1cc(F)c(NCC(N)C(F)(F)F)nc1Nc1ccc2ncccc2c1 (stereo not shown)	< 10 nM
C[C@H](N)[C@H](Nc1nc(Nc2ccc3ncccc3c2)c(C(N)=O)cc1F)C1CC1	< 10 nM
NC(=O)c1cc(F)c(N[C@@H]2CCCC[C@@H]2N)nc1Nc1ccnc(-n2nccn2)c1 [Example 006-146]	< 10 nM
CCOCCOCCOc1ccc2cc(Nc3nc(NC4CCCCC4N)c(F)cc3C(N)=O)ccc2n1 (stereo not shown)	< 10 nM
NC(=O)c1cc(F)c(N[C@@H]2CCCC[C@@H]2N)nc1Nc1cncc(NC(=O)c2ccc(S(=O)(=O)F)cc2)c1 (relative stereo)	10 to 50 nM
CCC[C@@H](Nc1nc(Nc2cnc3cc(OCCOC)ccc3c2)c(C(N)=O)cc1F)[C@H](C)N	< 10 nM
CC(C)C[C@H](CN)Nc1nc(Nc2ccc(N3CCOCC3)nc2)c(C(N)=O)cc1F	10 to 50 nM

// below: IC50 requested for another compound
// field: IC50; key: NC(=O)c1cc(F)c(N[C@@H]2CCCC[C@@H]2N)nc1Nc1ccc2nc(OCCCN3CCCC3=O)ccc2c1 (relative stereo) ; value = < 10 nM
